System: SF-539
test-description: Growth inhibition of human SF539 cells assessed as cell growth incubated for 48 hrs by sulforhodamine B assay
Assay type: functional
Design: scale not given: the % may be the effect or the level left
Field: Activity. Provide a value for each of the compounds that follow.
One number for each entry, in %.

// below: answered compounds
compound="CC(C)(O)C(O)CCc1ccc2c(=O)c3sc4c(=O)c5ccccc5c(=O)c4c3c(=O)c2c1 (centres undefined)" study_target=SF-539 observed_value=-99.46
compound=O=c1c2ccccc2c(=O)c2c1sc1c(=O)c3ccc(CCCO)cc3c(=O)c12 study_target=SF-539 observed_value=-100
compound=O=C([O-])CCc1ccc2c(=O)c3sc4c(=O)c5ccccc5c(=O)c4c3c(=O)c2c1.[Na+] study_target=SF-539 observed_value=-99.93

In the following, a different compound is considered.
Form: item NCC1CN(C(=O)CCc2ccc3c(=O)c4sc5c(=O)c6ccccc6c(=O)c5c4c(=O)c3c2)C1.O=C(O)C(F)(F)F ; test system SF-539; Activity: -99.46
